# TESTED_TARGET: hHINT1 Q62R (Homo sapiens, UniProt P49773, Q62R)
# Sequence (P49773 whole entry Q62R): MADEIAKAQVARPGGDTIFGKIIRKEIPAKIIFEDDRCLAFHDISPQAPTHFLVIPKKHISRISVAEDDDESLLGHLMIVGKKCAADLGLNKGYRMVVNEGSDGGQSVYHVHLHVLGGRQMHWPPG
# METHOD_SUMMARY: Stopped-flow burst-phase adenylation kinetics, hHINT1 Q62R
MEASURED_PARAMETER: Kd (µM)

# MOLECULE_SMILES, MEASURED_PARAMETER, ASSAY_VALUE
data = [
    ("Nc1ncnc2c1ncn2[C@@H]1O[C@H](COP(=O)(O)NCCc2c[nH]c3ccccc23)[C@@H](O)[C@H]1O", "Kd", 2.9),
]

----------
# TESTED_TARGET: hHINT2 R99Q (Homo sapiens, UniProt Q9BX68, R99Q)
# Sequence (Q9BX68 37-163 R99Q limits assumed): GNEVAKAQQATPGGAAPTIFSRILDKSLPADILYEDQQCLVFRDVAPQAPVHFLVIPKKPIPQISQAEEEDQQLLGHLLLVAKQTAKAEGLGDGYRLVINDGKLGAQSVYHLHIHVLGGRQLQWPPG
# METHOD_SUMMARY: Isothermal titration calorimetry, hHINT2 R99Q
# Format: binding
MEASURED_PARAMETER: Kd

# MOLECULE_SMILES, MEASURED_PARAMETER, ASSAY_VALUE
data = [
    ("O=C(CCc1c[nH]c2ccccc12)NS(=O)(=O)OC[C@H]1O[C@@H](n2cnc3c2ncn2ccnc32)[C@H](O)[C@@H]1O", "Kd", "6.94 µM"),
]

----------
# TESTED_TARGET: hHINT2 WT (Homo sapiens)
# Sequence (Q9BX68 37-163 limits assumed): as the sequence (Q9BX68 37-163 R99Q limits assumed) above, with Q63R counted along it
# METHOD_SUMMARY: Isothermal titration calorimetry, hHINT2 WT
# Format: binding

# COMPOUND, Kd
rows = [
    ("O=C(CCc1c[nH]c2ccccc12)NS(=O)(=O)OC[C@H]1O[C@@H](n2cnc3c2ncn2ccnc32)[C@H](O)[C@@H]1O [Inhibitor 1]", "9.43 µM"),
]

----------
# TESTED_TARGET: hHINT2 R99A (Homo sapiens, UniProt Q9BX68, R99A)
# Sequence (Q9BX68 37-163 R99A limits assumed): as the sequence (Q9BX68 37-163 R99Q limits assumed) above, with Q63A counted along it
# METHOD_SUMMARY: Stopped-flow burst-phase adenylation kinetics, hHINT2 R99A
pKd: −log10 of the molar value.
MEASURED_PARAMETER: pKd

# MOLECULE_SMILES, TESTED_TARGET, MEASURED_PARAMETER, ASSAY_VALUE
records = [
    ("Nc1ncnc2c1ncn2[C@@H]1O[C@H](COP(=O)(O)NCCc2c[nH]c3ccccc23)[C@@H](O)[C@H]1O", "hHINT2 R99A (Homo sapiens, UniProt Q9BX68, R99A)", "pKd", 5.22),
]

----------
# TESTED_TARGET: hHINT2 R99Q (Homo sapiens, UniProt Q9BX68, R99Q)
# METHOD_SUMMARY: Stopped-flow burst-phase adenylation kinetics, hHINT2 R99Q
# Type: biochemical
pKd: −log10 of the molar value.
MEASURED_PARAMETER: pKd

# MOLECULE_SMILES, ASSAY_VALUE
measured = [
    ("Nc1ncnc2c1ncn2[C@@H]1O[C@H](COP(=O)(O)NCCc2c[nH]c3ccccc23)[C@@H](O)[C@H]1O", 5.26),
]

----------
# TESTED_TARGET: hHINT1 Q62A (Homo sapiens, UniProt P49773, Q62A)
# Sequence (P49773 whole entry Q62A): as the sequence (P49773 whole entry Q62R) above, with R62A counted along it
# METHOD_SUMMARY: Stopped-flow burst-phase adenylation kinetics, hHINT1 Q62A

# MOLECULE_SMILES, Kd / µM
measured = [
    ("Nc1ncnc2c1ncn2[C@@H]1O[C@H](COP(=O)(O)NCCc2c[nH]c3ccccc23)[C@@H](O)[C@H]1O", 4.9),
]
